# IC50 values compiled below
# System: BT-549
# measurement protocol: NCI panel growth inhibition, sulforhodamine B
# Format: cell-based, human
# test parameters: Homo sapiens, BT-549, BT-549, Breast cancer; drug for last 48 h of 72 h
# Text: Comparison of anticancer activities of the 1,3-substituted adamantane derivatives, 1,3-bis(4-aminophenyl)adamantane (1,3-DPANH2), 1,3-bis(4-(4-aminophenoxy)phenyl)adamantane (1,3-DPAONH2), 1,3-bis(4-(4-amino-3-hydroxy)phenyl)adamantane (1,3-DPA/OH/NH2) and 1,3-bis(4-(4-amino-2-trifluoromethylphenoxy)phenyl)adamantane (1,3-DPA/CF3/NH2) as shown in FIG. 1 were synthesized in the present invention. […]
Return type: number; implicit unit µM.

Below, 3 compounds whose answers are already recorded.
{"compound": "Nc1ccc(Oc2ccc(C3(c4ccc(Oc5ccc(N)c(O)c5)cc4)C4CC5CC(C4)CC3C5)cc2)cc1O [DPA]", "numeric readout": 2.05}
{"compound": "Nc1ccc(Oc2ccc(C34CC5CC(C3)CC(c3ccc(Oc6ccc(N)cc6)cc3)(C5)C4)cc2)cc1 [1,3-DPAONH2]", "numeric readout": 4.02}
{"compound": "Nc1ccc(C2(c3ccc(N)cc3)C3CC4CC(C3)CC2C4)cc1 [2,2-DPANH2, 2,2-bis(4-aminophenyl)adamantane]", "numeric readout": 11.2}

Entry Nc1ccc(C23CC4CC(C2)CC(c2ccc(N)cc2)(C4)C3)cc1 [1,3-DPANH2, 1,3-bis(4-aminophenyl)adamantane] , system BT-549: what IC50 was measured?
42.8
